Target: STK35 (human)
Assay: KINOMEscan competition binding
Details: compound 10.0 µM
kinase still bound, per cent of control: recorded values
reportedProperty: kinase still bound, per cent of control (%)

compound	reportedProperty	scaleUnit	reading
CC(=O)c1c(C)c2cnc(Nc3ccc(N4CCNCC4)cn3)nc2n(C2CCCC2)c1=O	kinase still bound, per cent of control	%	66
CC1=C(C(=O)Nc2cc3cn[nH]c3cc2F)C(c2ccc(C(F)(F)F)cc2)CC(=O)N1 (stereo not given)	kinase still bound, per cent of control	%	96
C=CC(=O)Nc1ccc(C(=O)c2sc(Nc3ccc(N4CCN(C)CC4)cc3OC)nc2N)cc1	kinase still bound, per cent of control	%	94
CCOc1cc(N2CCC(O)CC2)ccc1Nc1ncc2c(n1)N(C)c1ccccc1C(=O)N2C	kinase still bound, per cent of control	%	100
COc1cc2c(Nc3ccc(NC(=O)c4ccccc4)cc3)ncnc2cc1OCCCN1CCOCC1	kinase still bound, per cent of control	%	64

====

kinase still bound, per cent of control: recorded values
Biological target: PIM3 (human) (UniProt Q86V86)
Experiment: KINOMEscan competition binding
Settings: compound 10.0 µM
reportedProperty: kinase still bound, per cent of control (%)

compound	reportedProperty	scaleUnit	reading
COc1cc2ncnc(Nc3cccc(Cl)c3)c2cc1OC	kinase still bound, per cent of control	%	54
COc1ccc(N(C(=O)Oc2cc(C(=O)Nc3cccc(C(F)(F)F)c3)ccc2C)c2ccnc(Nc3ccc(N4CCN(C)CC4)cc3)n2)c(OC)c1	kinase still bound, per cent of control	%	100
CC1=C(C(=O)Nc2cc3cn[nH]c3cc2F)C(c2ccc(C(F)(F)F)cc2)CC(=O)N1 (stereo not drawn)	kinase still bound, per cent of control	%	92
O=c1[nH]c2ccccc2n1C1CCN(Cc2ccc(-c3nc4cc5[nH]cnc5cc4nc3-c3ccccc3)cc2)CC1	kinase still bound, per cent of control	%	100
N#C/C(=C1/Nc2ccccc2S1)c1ccnc(NCCc2cccnc2)n1	kinase still bound, per cent of control	%	2.3
N#Cc1cc(-c2ccnc(Nc3ccc(-n4cnc(-c5cccnc5)n4)cc3)n2)cc(N2CCOCC2)c1	kinase still bound, per cent of control	%	78
CCN1CCN(Cc2ccc(NC(=O)c3ccc(C)c(/C=C/c4cnc5[nH]ccc5c4OC)c3)cc2C(F)(F)F)CC1	kinase still bound, per cent of control	%	100
CNC(=O)Nc1ccc(-c2nc(N3CC4CCC(C3)O4)c3cnn(C4CCC5(CC4)OCCO5)c3n2)cc1	kinase still bound, per cent of control	%	100
COc1cc2c(Nc3ccc(NC(=O)c4ccccc4)cc3)ncnc2cc1OCCCN1CCOCC1	kinase still bound, per cent of control	%	100
C=CC(=O)Nc1ccc(C(=O)c2sc(Nc3ccc(N4CCN(C)CC4)cc3OC)nc2N)cc1	kinase still bound, per cent of control	%	87
COc1cc(N2CCC(C(N)=O)CC2)ccc1Nc1nc(N)c(Cl)c(Nc2ccccc2S(=O)(=O)C(C)C)n1	kinase still bound, per cent of control	%	100
CCOc1cc(N2CCC(O)CC2)ccc1Nc1ncc2c(n1)N(C)c1ccccc1C(=O)N2C	kinase still bound, per cent of control	%	100
COc1cc(C)c(Sc2cnc(NC(=O)c3ccc(CNC(C)C(C)C)cc3)s2)cc1C(=O)N1CCN(C(C)=O)CC1 (stereo not drawn)	kinase still bound, per cent of control	%	100
CCc1nc(-c2cccc(C)c2)c(-c2ccnc(NC(=O)c3ccccc3)c2)s1	kinase still bound, per cent of control	%	86
Cc1cn(-c2cc(C(=O)Nc3ccc(C)c(NC(=O)c4ccno4)c3)cc(C(F)(F)F)c2)cn1	kinase still bound, per cent of control	%	100
CCCS(=O)(=O)Nc1ccc(F)c(C(=O)c2c[nH]c3ncc(Cl)cc23)c1F	kinase still bound, per cent of control	%	65
CC(=O)c1c(C)c2cnc(Nc3ccc(N4CCNCC4)cn3)nc2n(C2CCCC2)c1=O	kinase still bound, per cent of control	%	82
CCN(CCO)CCCOc1ccc2c(Nc3cc(CC(=O)Nc4cccc(F)c4)[nH]n3)ncnc2c1	kinase still bound, per cent of control	%	100
